Target under test: MS2 coat protein, dlFG mutant (Escherichia phage MS2, UniProt P03612, del68-81insG)
Protocol details: 4 mM Mg2+; no ligand; RNA-MaP array; 100 mM Tris-HCl pH 7.5, 80 mM KCl, 4 mM MgCl2, 0.1 mg/mL BSA, 1 mM DTT, 0.01 mg/mL yeast tRNA, 0.01% Tween-20; protein 1.5 nM to 3 uM; 37 C (Table S3)
Condition description: chain copies: 2; label: tethered by stalled RNA polymerase
Endpoint: Kd (nM)
Note: unit nM is implicit; provide only the numeric part.

// query Any idea what Kd was measured for Eterna 6455789 (Same State NG 2) (ssRNA) RNA: UUGGACGUCGUAGGAUAUGUAGGAUAUUCCUACAUGAGGAUCACCCAUGUUGACAUGGAAGAAGGACAGAAGUACGAUGUCCAU ?
// result 127

// query Any idea what Kd was measured for Eterna 6382764 (Same State NG 3) (ssRNA) RNA: GGACGUCACAUUAACAUGAGGAUCACCCAUGUGAAAACACAUGAGGAUAUGGAUCCUAAUUGGAUCCAGAAGGCAUGGACGUCC ?
// result 27.8

// query Any idea what Kd was measured for Eterna 6084833 (Exclusion 5) (ssRNA) RNA: UCAUGCUAAGGAUAUGACGUCGGCUACAUGAGGAUCACCCAUGUGGGUUCGUUAUGGCCAUUAGAAGGUAGCGAUU ?
// result 19.6

// query Any idea what Kd was measured for Eterna 6458058 (Inverted Same State NG 2) (ssRNA) RNA: AAUGGGCAGCAGAAGGCAUGUCUACGGACAUGAGGAUCACCCAUGUAGUAAAGCCGAAAGGCGCAUGAGGAUAUGCUGCCCUAA ?
// result 121

// query Any idea what Kd was measured for Eterna 6093766 (Exclusion NG 2) (ssRNA) RNA: UGUCGGAGCAGAGGAUAUAUACAUGAGGAUCACCCAUGUAAAUGAAUGAGCUGGAAACAGCAAGUAUAGAAGGCUGCUCCGACA ?
// result 14.9
